Values compiled from PubChem BioAssay AID1963979.

System: 361931-004-R-J1-PDC multicell spheroid viability;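 note: spheroids exposed to agents for seven days before readout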
ASSAY PROCEDURE: Anticancer human tumor 361931-004-R-J1-PDC patient-derived colon adenocarcinoma cell line growth inhibition [PI3K]
CONDITION DESCRIPTION: second compound 1 µM; first compound 0.1 µM; hits give low values
# maps each entry to its viability, T/C
MEASURED PARAMETER: viability, T/C

MOLECULE	MEASURED PARAMETER	RECORDED VALUE
C[C@@H](NC(=O)c1ncnc(N)c1Cl)c1ncc(C(=O)Nc2cc(C(F)(F)F)c(Cl)cn2)s1 + CC(Nc1ccc2c(c1)OCCn1cc(N3C(=O)OCC3C(F)F)nc1-2)C(N)=O	viability, T/C	80.2%
CNC(=O)c1ccc(N2C(=S)N(c3ccc(C#N)c(C(F)(F)F)c3)C(=O)C2(C)C)cc1F + CC(Nc1ncnc2nc[nH]c12)c1cc2cccc(Cl)c2c(=O)n1-c1ccccc1	viability, T/C	106%
C[C@@H](NC(=O)c1ncnc(N)c1Cl)c1ncc(C(=O)Nc2cc(C(F)(F)F)c(Cl)cn2)s1 + Cc1nc(NC(=O)N2CCCC2C(N)=O)sc1-c1ccnc(C(C)(C)C(F)(F)F)c1	viability, T/C	95.8%
Cn1ncc(Cl)c1-c1cc(C(=O)NC(CN)Cc2cccc(F)c2)sc1Cl (stereo unspecified) + COc1c(OCCCN2CCOCC2)ccc2c3n(c(=NC(=O)c4cnc(N)nc4)nc12)CCN3	viability, T/C	19.4%
CNC(=O)c1ccc(N2C(=S)N(c3ccc(C#N)c(C(F)(F)F)c3)C(=O)C2(C)C)cc1F + COc1c(OCCCN2CCOCC2)ccc2c3n(c(=NC(=O)c4cnc(N)nc4)nc12)CCN3	viability, T/C	22.2%
CC(Cn1ccc(-c2ccc(C#N)c(Cl)c2)n1)NC(=O)c1cc(C(C)O)[nH]n1 (stereo unspecified) + Cc1nc(NC(=O)N2CCCC2C(N)=O)sc1-c1ccnc(C(C)(C)C(F)(F)F)c1	viability, T/C	102%
CC(Cn1ccc(-c2ccc(C#N)c(Cl)c2)n1)NC(=O)c1cc(C(C)O)[nH]n1 (stereo unspecified) + COc1c(OCCCN2CCOCC2)ccc2c3n(c(=NC(=O)c4cnc(N)nc4)nc12)CCN3	viability, T/C	19%
CC(=O)c1c(C)c2cnc(Nc3ccc(N4CCNCC4)cn3)nc2n(C2CCCC2)c1=O + CC(Nc1ncnc2nc[nH]c12)c1cc2cccc(Cl)c2c(=O)n1-c1ccccc1	viability, T/C	89%
CC(C)n1nc(-c2ccc3oc(N)nc3c2)c2c(N)ncnc21 + COc1c(OCCCN2CCOCC2)ccc2c3n(c(=NC(=O)c4cnc(N)nc4)nc12)CCN3	viability, T/C	10.6%
C[C@@H](NC(=O)c1ncnc(N)c1Cl)c1ncc(C(=O)Nc2cc(C(F)(F)F)c(Cl)cn2)s1 + COc1c(OCCCN2CCOCC2)ccc2c3n(c(=NC(=O)c4cnc(N)nc4)nc12)CCN3	viability, T/C	25.8%
C=CC(=O)N1CCN(c2nc(=O)n(-c3c(C)ccnc3C(C)C)c3nc(-c4c(O)cccc4F)c(F)cc23)C(C)C1 (stereo unspecified) + CC(Nc1ncnc2nc[nH]c12)c1cc2cccc(Cl)c2c(=O)n1-c1ccccc1	viability, T/C	109%
